Data origin, for the record: patent US20200157194A1

# tgt: T1, human GREM1 (hGREM1-His; SEQ ID NO: 595) (human, UniProt O60565 25-184)
# T1 construct: also called biotin-hGREM1-His; recombinant human GREM1 protein
# T1 sequence: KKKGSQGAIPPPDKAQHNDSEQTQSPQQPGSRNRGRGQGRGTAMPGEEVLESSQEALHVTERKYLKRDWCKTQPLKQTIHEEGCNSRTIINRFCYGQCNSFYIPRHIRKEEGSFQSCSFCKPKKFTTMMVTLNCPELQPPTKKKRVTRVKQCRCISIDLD
# procedure-details: SPR, Biacore T200, 37 C, mAb captured, hGREM1-His injected;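 note: HBS-EP running buffer containing heparin, association and dissociation phases tracked, KD computed as koff over kon and half-life derived from koff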
endpoint-label: t1/2

Please review the following examples before continuing.
H4H2895N (antibody, human IgG4, V domains shown, H4H prefix = human IgG4 Fc) VH: EVQLVESGGGLVQPGGSLRLSCAASGFTVSSNYMSWVRQAPGKGLEWVSVIYSGGNTYYADSVKGRFTISRHNSKNTLYLQMNSLRAEDTAVYYCARDLGIKSDYWGQGTLVTVSS VL: EIVLTQSPDFQSVTPKEKVTITCRASQSIGTTLHWYQQKPDQSPKLLIKYVSQSLSGVPSRFSGSGSGTDFTLTINSLEAEDAATYYCHQSSSLPWTFGQGTKVEIK    54 min
H4H6250P (antibody, human IgG4, V domains shown, H4H prefix = human IgG4 Fc) VH: QVQLVESGGGVVQPGRSLRLSCAASGFTFSNYGMHWVRQAPGKGLEWVAVIWYDGSNKYYADSVKGRFTISRDNSRKTLYLQMNSLRAEDTAIYYCTRDDYGDYDYPFDYWGQGTLVTVSS VL: DIQMTQSPSSLSASVGDRVTITCRASQGIRNDLGWYQQKPGKAPKRLIYAASSLQSGVPSRFSGTGSGTEFTLTISSLQPEDFATYYCLQHNSYPPFTFGPGTKVDIK    13 min

The record that follows has no t1/2 shown yet.
Report t1/2 for H4H6246P (antibody, human IgG4, V domains shown, H4H prefix = human IgG4 Fc) VH: QVQLVESGGGVVQPGRSLRLSCAASGFTFSSYGMHWVRQAPGKGLEWVAIIWYDGSNRYYADSVKGRFTISRDNSRNTLYLQMNSLRAEDTAVYYCARDEYGDYDYPFDYWGQGTLVTVSS VL: DIQMTQSPSSLSASVGDRVTITCRASQGIRNDLGWFQQKPGKAPKRLIYAASSLQSGVPSRFSGSGSGTEFTLTISSLQPEDFATYYCLQHNTYPPFTFGPGTKVDIK
26 min
